Condition: buffer; pH 7.4; 200.0 µM
Readout Type: solubility kinetic

Example entries begin here.
NC(=O)c1ccc(NC(=O)Cc2cccs2)cc1    32.9 µg/mL
O=C1OCC2=C1C(c1ccccc1)CC(=O)N2c1cccc(F)c1 (stereo not given)    44.3 µg/mL
Cc1ccccc1C(=O)NCCOc1ccccc1Cl    40.4 µg/mL
COc1cccc(-c2noc(CCC(=O)NC3CCCC3)n2)c1    > 47.3 µg/mL
COc1cc(C(=S)N2CCOCC2)ccc1OC(=O)c1ccccc1C    10.3 µg/mL
CCOC(=O)Nc1cc(NC(=O)OCC)c(C)nc1C    > 42.2 µg/mL

# solubility kinetic of `O=C(CCn1c(=O)oc2cc(Cl)ccc21)Nc1ccc(O)cc1` = > 49.9 µg/mL

----------
Catalogue of log10 of solubility kinetic readings, one per entry.
Condition: buffer; pH 7.4; 200.0 µM
The common logarithm of solubility kinetic in µg/mL is what is listed.

# log10 of solubility kinetic of `NC(=O)c1ccccc1NC(=O)Cc1cccs1` = 1.58

----------
Catalogue of solubility kinetic readings, one per entry.
Condition: buffer; pH 7.4; 200.0 µM
Lab book: enter the figure in µg/mL, no units written.

Example entries begin here.
COc1ccccc1Oc1nc(-c2cccnc2)nc2ccccc12    2.1
CCCCS(=O)(=O)N1CCCC(C(=O)NCCc2ccccc2)C1 (stereo unspecified)    14.7
CC(C)N(C(=S)Nc1ccc(S(=O)(=O)N2CCOCC2)cc1)c1ccccc1    7.1

# solubility kinetic of `Cc1nc(Nc2cccc(O)c2)c2oc3ccccc3c2n1` = 2

# solubility kinetic of `Cc1ccc(-n2c(O)c(C=NCc3ccccn3)c(=O)[nH]c2=S)cc1` = 29.6

----------
Condition: buffer; pH 7.4; 200.0 µM
Catalogue of solubility kinetic readings, one per entry.
Lab book: enter the figure in µg/mL, no units written.

Example entries begin here.
CCOc1ccccc1Nc1nc(-c2cccnc2)cs1    10.6
Cc1cc(C)cc(NC(=O)CS(=O)(=O)c2ccccc2)c1    44.2
O=[N+]([O-])c1ccc(C2CCCC/C2=N/O)c([N+](=O)[O-])c1 (stereo unspecified)    8.8

With those in mind, consider the next molecule.
# solubility kinetic of `COc1ccccc1Nc1c2c(nc3ccccc13)CCC2` = 37.4

----------
Condition: buffer; pH 7.4; 200.0 µM
Catalogue of solubility kinetic readings, one per entry.

Example entries begin here.
O=C(Nc1cccc2c1C(=O)NC2=O)c1ccccc1[N+](=O)[O-]    6.9 µg/mL
O=C(COc1nncc2ccccc12)NCC(F)(F)F    > 42.8 µg/mL
O=C1CCCN1CC(O)CS(=O)(=O)Cc1ccccc1Cl (stereo unspecified)    > 49.8 µg/mL

# solubility kinetic of `O=C(NN=C1CCCCCC1)c1ccncc1` = > 34.7 µg/mL

# solubility kinetic of O=C1CCCN1CCC1CCCCN1Cc1nc(-c2cnccn2)no1 (stereo unspecified) = > 53.5 µg/mL

# solubility kinetic of CCOc1ccc(NC(=O)C2C3CC/C=C\CCC32)cc1 (stereo unspecified) = < 0.6 µg/mL

----------
Condition: buffer; pH 7.4; 200.0 µM
Readout Type: solubility kinetic (mg/mL)
Lab book: enter the figure in mg/mL, no units written.

Example entries begin here.
CCOn1c(=O)c(-c2ccc(F)cc2)[n+]([O-])c2ccccc21    0.0099
COc1ccc(C(=O)NCC2(c3ccccc3)CCOCC2)cc1    0.0471
Cc1ccc(NC2=NCCCS2)cc1Cl    0.0284
Cc1ccc2cccc(N)c2n1    0.019
O=C(NC1CCCCCC1)c1cccc(S(=O)(=O)N2CCOCC2)c1    0.0065

# solubility kinetic of CC(C)CNC(=O)C(=O)Nc1cc2c3c(c1)C(C)C(=O)N3CCC2 (stereo unspecified) = 0.0427

# solubility kinetic of `Cc1ccc(NC(=O)NC(=O)c2cnccc2C(F)(F)F)c(C)c1` = 0.0109

----------
Catalogue of solubility kinetic readings, one per entry.
Condition: buffer; pH 7.4; 200.0 µM
Lab book: enter the figure in µg/mL, no units written.

Example entries begin here.
COc1ccc(CCNC(=O)C2CC2)cc1    32.4
O=C(CNS(=O)(=O)c1cccc(C(F)(F)F)c1)NC1CCCCCC1    48.7
N#Cc1ccc(-c2csc(-c3ccno3)n2)cc1    1.2

# solubility kinetic of `O=C(COC(=O)c1cc(=O)[nH]c2ccccc12)NCCc1ccccc1` = 21.1

# solubility kinetic of `CCN(Cc1ccccc1)Cc1ccc(OCc2ccccc2)c(OC)c1` = 10.3

# solubility kinetic of `Cn1cc(S(=O)(=O)Oc2ccccc2)c(=O)n(C)c1=O` = 39.5

----------
Condition: buffer; pH 7.4; 200.0 µM
Catalogue of solubility kinetic readings, one per entry.
Lab book: enter the figure in µg/mL, no units written.

# solubility kinetic of CC1CN=C(Nc2ccc(F)c(Cl)c2)S1 (configuration not stated) = 17.3

# solubility kinetic of `CC(C)C(=O)Nc1c(-c2ccccc2F)c(=O)c2ccccc2n1C` = 49.4

# solubility kinetic of `CCOC(=O)CNC(=O)C12CC3CC(C1)CC(c1ccc(C)cc1)(C3)C2` = 3.9

# solubility kinetic of `CN1CCN2c3ncccc3Cc3ccccc3[C@@H]2C1` = 30.2

# solubility kinetic of `O=C(Nc1nc(-c2cccnc2)cs1)c1ccc([N+](=O)[O-])cc1` = 3.2

# solubility kinetic of `CCCOc1ccc2nc(C)c(CCC)c(SC(=N)N)c2c1.Cl` = 33

----------
Condition: buffer; pH 7.4; 200.0 µM
Catalogue of solubility kinetic readings, one per entry.
Lab book: enter the figure in mg/mL, no units written.

Example entries begin here.
CCC(=O)c1ccc(OCCn2cnc3ccccc32)cc1.Cl    0.0437
COc1ccc(CCNC(=O)c2cnc(Cl)c(Cl)c2)cc1    0.0024
COC(=O)c1ccccc1NC(=O)Nc1cc(C(C)(C)C)on1    0.0161
CCOC(=O)Nc1ccc(C(=O)c2ccncc2)cc1    0.004
CCCN1CCN(CC(=O)Nc2nc3ccccc3s2)CC1    0.0006

# solubility kinetic of `C=CCN1C(=O)C2(OCCCO2)c2ccccc21` = 0.0367

# solubility kinetic of Cc1cc(-c2ccccc2)nc(SC(C(=O)O)c2ccccc2)n1 (stereo not given) = 0.0481

# solubility kinetic of `C=CCn1cc(Cl)cc(C(=O)Nc2ccccc2)c1=O` = 0.0069

# solubility kinetic of CC(C(O)c1cc(=O)c(OCc2ccccc2)co1)[N+](=O)[O-] (stereo not given) = 0.0331

# solubility kinetic of CCNCC(O)c1cccc(O)c1 (stereo not given) = 0.0189

# solubility kinetic of CC1CCC2(CC1)NC(=O)N(CC(=O)NCc1ccc(Cl)cc1)C2=O (stereo not given) = 0.0063

# solubility kinetic of `CN(CC(=O)Nc1ccc(OC(F)(F)F)cc1)C(=O)/C=C/c1ccco1` = 0.0077

----------
Condition: buffer; pH 7.4; 200.0 µM
Catalogue of solubility kinetic readings, one per entry.

CN1c2ccccc2C(=O)/C(=C\Nc2ccc(F)cc2)S1(=O)=O    < 0.4 µg/mL
O=C(Nc1cccc(Cl)c1)Nc1ccccc1C(=O)O    > 43.6 µg/mL
COCC(C)n1c(SCC(=O)Nc2c(C)n(C)n(-c3ccccc3)c2=O)nc2ccccc2c1=O (stereo unspecified)    > 74 µg/mL

# solubility kinetic of `O=C(CCC(=O)N1CCN(c2ccccc2F)CC1)c1ccc(Cl)s1` = 19.5 µg/mL

# solubility kinetic of `COc1ccc(-c2noc(=O)n2Cc2ccc(C#N)cc2)cc1` = > 46.1 µg/mL

# solubility kinetic of `O=C(c1ccc(-n2cccn2)cc1)N1CCc2ccccc2C1` = > 45.5 µg/mL

----------
Catalogue of solubility kinetic readings, one per entry.
Condition: buffer; pH 7.4; 200.0 µM

Example entries begin here.
O=C(COc1ccccc1)N1CCCC1    26.7 µg/mL
COc1ccccc1C(=O)C1CCCN(Cc2ccc3c(c2)OCCO3)C1 (stereo not given)    36.7 µg/mL
CC1(C)CC(=O)C2=C(C1)Nc1ccccc1[S@]2=O    > 39.2 µg/mL
O=CN1CCN(C(=O)c2ccc3c(c2)OCO3)CC1    > 39.3 µg/mL
O=C(Nc1cccc(NC(=O)c2cccs2)c1)c1ccc(F)cc1    < 0.4 µg/mL

# solubility kinetic of CCC(C)c1ccc(NC(=O)COC(=O)C2CCCC2)cc1 (stereo not given) = 8.8 µg/mL

# solubility kinetic of `CCOC(=O)CN1C(=O)C(=O)N(Cc2c(Cl)cccc2Cl)C1=O` = 30.6 µg/mL

# solubility kinetic of `C=CCNC(=O)c1ccc2c(c1)N(CC)C(=O)c1ccccc1S2` = > 50.8 µg/mL

# solubility kinetic of CC(NC(=O)C(c1ccccc1)c1ccccc1)C(=O)N1CCCCC1 (stereo not given) = 49.3 µg/mL

# solubility kinetic of `COc1c(Cl)cc(C(=O)NCc2ccco2)cc1Cl` = 40.2 µg/mL

# solubility kinetic of `O=C(NCCOCc1ccccc1)C(c1ccccc1)c1ccccc1` = 23.3 µg/mL

Values were extracted from PubChem BioAssay AID1996.
